# SYSTEM_UNDER_TEST: T1, hVISTA-ECD 6-His tag (human, UniProt Q9H7M9 33-193)
# T1 construct: also called monovalent hVISTA-ECD; human VISTA
# PROTOCOL_DESCRIPTION: SPR 37 C, Ab on Protein A, pH 6.0
PROPERTY_MEASURED: koff
I'd appreciate it if you included the unit after the number.

In plain terms, P1-077857 (P1-068744 E31S E100S) (antibody, V domains shown) VH: QVQLVESGGGVVQPGRSLRLSCAASGFTFSSYAMHWVRQAPGKGLEWVAHIWYDGSNKYEADSVKGRFTISRDNSKNTLYLQMNSLRAEDTAVYYCARDSGFYSSYYFDEWGQGTLVTVSS VL: EIVLTQSPATLSLSPGERATLSCRASQSVSSSYLAWYQQKPGQAPRLLIYDASNRATGIPARFSGSGSGTDFTLTISSLEPEDFATYYCQQYNSYPYTFGQGTKLEIK has a documented koff of 0.097 s⁻¹

The values you see were collected from patent US20230192860A1.
